Cited source: patent US20110256510A1

# system-name: human recombinant MMP-9 (Homo sapiens)
# Construct: purchased AnaSpec, Inc. 72009
# Sequence (P14780 94-707): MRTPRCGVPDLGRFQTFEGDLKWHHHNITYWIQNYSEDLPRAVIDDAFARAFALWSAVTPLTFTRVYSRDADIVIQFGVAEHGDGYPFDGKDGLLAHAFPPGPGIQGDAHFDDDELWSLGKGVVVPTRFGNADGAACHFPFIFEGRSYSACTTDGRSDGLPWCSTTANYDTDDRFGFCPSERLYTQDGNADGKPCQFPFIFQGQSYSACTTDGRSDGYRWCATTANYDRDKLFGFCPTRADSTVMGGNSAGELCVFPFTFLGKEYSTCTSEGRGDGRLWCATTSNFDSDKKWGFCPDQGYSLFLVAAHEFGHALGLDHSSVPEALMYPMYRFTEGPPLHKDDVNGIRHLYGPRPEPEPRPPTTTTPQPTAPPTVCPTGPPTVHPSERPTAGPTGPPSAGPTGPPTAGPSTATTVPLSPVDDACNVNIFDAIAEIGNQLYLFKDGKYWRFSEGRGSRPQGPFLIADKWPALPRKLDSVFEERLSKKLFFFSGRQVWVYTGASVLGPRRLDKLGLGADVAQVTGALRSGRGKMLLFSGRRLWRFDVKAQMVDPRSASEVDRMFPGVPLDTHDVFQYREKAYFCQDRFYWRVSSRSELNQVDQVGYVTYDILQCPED
# assay-procedure: Human MMP-9-based anti-MMP screening assay (Sensolyte Generic MMP colorimetric kit)
# Type: biochemical
# recorded-conditions: inhibitor 10 wt %, soluble human MMP-9
The label depends only on % MMP ACTIVITY INHIBITION (t = 30 minutes): 1 if it is at least 7%, 0 if it is smaller.

## Input Dear colleague, could you confirm whether C=CC(=O)OCC[N+](C)(C)C.[Cl-] [ATA] has % MMP ACTIVITY INHIBITION (t = 30 minutes) at or above 7%?
## Output 1

## Input Same lookup for C=C(C)C(=O)OCC[N+](C)(C)C.[Cl-] [METMAC] , please.
## Output 1

## Input Same lookup for C=C(C)C(=O)NCCC[N+](C)(C)C.[Cl-] [MAPTAC] , please.
## Output 0

## Input Same lookup for C=C(C)C(=O)OCC[N+](C)(C)C [MCMS] , please.
## Output 1
